- TESTED_SYSTEM: VIPR2 (Homo sapiens)
- Sequence (P41587 24-438): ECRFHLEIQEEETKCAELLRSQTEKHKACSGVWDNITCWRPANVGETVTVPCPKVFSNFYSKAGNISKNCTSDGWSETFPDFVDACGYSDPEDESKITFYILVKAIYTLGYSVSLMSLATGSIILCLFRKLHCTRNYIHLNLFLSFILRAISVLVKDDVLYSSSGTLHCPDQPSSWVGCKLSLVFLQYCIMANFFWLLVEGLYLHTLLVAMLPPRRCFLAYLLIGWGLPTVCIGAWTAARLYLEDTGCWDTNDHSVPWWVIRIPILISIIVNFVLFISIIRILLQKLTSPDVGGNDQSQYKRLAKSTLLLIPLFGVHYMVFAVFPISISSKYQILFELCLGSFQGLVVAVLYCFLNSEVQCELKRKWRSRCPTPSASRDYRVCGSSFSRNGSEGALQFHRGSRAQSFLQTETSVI
- ASSAY_PROTOCOL: Inhibition of VIP-induced β-arrestin recruitment (% Activity Arrestin)
- Assay type: cell-based
- Set-up: expressed in transfected cells; host or cells: HEK293 cells transfected with VIPR2 in pCDNA3.1 (as described)
- CONDITION_PARAMETERS: 1 μM, Batch 2
# inhibition at 1 µM annotations
Give the quantity in %, number only.

Some compounds with recorded inhibition at 1 µM:
>>> df
                                   compound         tested_system  unit_abbrev  reported_result
0  O=C([C@@H](Cc1ccccc1)C[C@H](O)CNS(=O)(=O)c1ccc([N+](=O)[O-])cc1)N1CCCCC1 [Compound B18B]  VIPR2 (Homo sapiens)            %              9.2
1  O=C(NC1CCCCCC1)[C@@H](Cc1ccccc1)C[C@H](O)CNS(=O)(=O)c1ccc([N+](=O)[O-])cc1 [Compound B5B]  VIPR2 (Homo sapiens)            %              3.6
2  O=C([C@@H](Cc1ccccc1)C[C@H](O)CNS(=O)(=O)c1ccc([N+](=O)[O-])cc1)N1CCOCC1 [Compound B9B]  VIPR2 (Homo sapiens)            %              -13
3  NC(=O)[C@H](Cc1ccccc1)C[C@H](O)CNS(=O)(=O)c1ccc([N+](=O)[O-])cc1 [Compound B12A]  VIPR2 (Homo sapiens)            %            -16.6
4  O=C(NC1CCCc2ccccc21)[C@@H](Cc1ccccc1)C[C@H](O)CNS(=O)(=O)c1ccc([N+](=O)[O-])cc1 (stereo partly shown) [Compound B13B]  VIPR2 (Homo sapiens)            %              6.9

Query block: State the recorded inhibition at 1 µM for this entry: O=C([C@H](Cc1ccccc1)C[C@H](O)CNS(=O)(=O)c1ccc([N+](=O)[O-])cc1)N1CCCCC1 [Compound B18A]
Result block: -11.5

Query block: Record: O=C(NN1CCCCC1)[C@H](Cc1ccccc1)C[C@H](O)CNS(=O)(=O)c1ccc([N+](=O)[O-])cc1 [Compound B6A]
Result block: 4.4

---

- TESTED_SYSTEM: VIPR2 (Homo sapiens)
- ASSAY_PROTOCOL: Inhibition of VIP-induced β-arrestin recruitment (% Activity Arrestin)
- Assay type: cell-based
- Set-up: expressed in transfected cells; host or cells: HEK293 cells transfected with VIPR2 in pCDNA3.1 (as described)
- CONDITION_PARAMETERS: 0.5 μM, Batch 2
EXPERIMENTAL_READOUT: inhibition at 0.5 µM (%)
Answer in %, number only, no unit symbol.

These recorded examples may help you get a feel for the data.
COMPOUND	inhibition at 0.5 µM, %
O=C([C@@H](Cc1ccccc1)C[C@H](O)CNS(=O)(=O)c1ccc([N+](=O)[O-])cc1)N1CCOCC1	7
O=C(N[C@H]1c2ccccc2C[C@H]1O)[C@H](Cc1ccccc1)C[C@H](O)CNS(=O)(=O)c1ccc([N+](=O)[O-])cc1 [Compound A27, reference compound]	15.6
NC(=O)[C@@H](Cc1ccccc1)C[C@H](O)CNS(=O)(=O)c1ccc([N+](=O)[O-])cc1 [Compound B12B]	3.5
O=C(NN1CCCCC1)[C@@H](Cc1ccccc1)C[C@H](O)CNS(=O)(=O)c1ccc([N+](=O)[O-])cc1	-0.9

Query block: Given the compound CCN(CC)C(=O)[C@H](Cc1ccccc1)C[C@H](O)CNS(=O)(=O)c1ccc([N+](=O)[O-])cc1 [Compound B15A] , what is its reported inhibition at 0.5 µM?
Result block: -5.4

Query block: What about this compound? O=C([C@H](Cc1ccccc1)C[C@H](O)CNS(=O)(=O)c1ccc([N+](=O)[O-])cc1)N1CCCCC1 [Compound B18A]
Result block: -10.2
